Target: recombinant human FLAP protein (Homo sapiens, UniProt P20292)
Sequence (P20292 whole entry): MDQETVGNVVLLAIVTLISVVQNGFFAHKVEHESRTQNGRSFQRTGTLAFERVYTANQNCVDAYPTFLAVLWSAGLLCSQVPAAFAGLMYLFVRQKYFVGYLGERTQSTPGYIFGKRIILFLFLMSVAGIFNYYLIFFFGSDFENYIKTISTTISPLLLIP
Experiment: FLAP binding assay (SPA, displacement of [125I]L-691,831)
Details: membranes of sf9 cells expressing human FLAP, [125I]L-691,831 probe; read-out: hFLAP binding IC50
pIC50: −log10 of the molar value.
Threshold check on pIC50: at or above 8 gives yes, strictly below gives no.

[[record]]
molecule = "CS(=O)(=O)c1ccc(NC(=O)C2(c3ccc(-c4cnc(N)nc4)nc3)CCC2)cc1 [Example 99]"
labelclass = "no"

[[record]]
molecule = "Cc1nc(-c2ccc(NC(=O)C3(c4ccc(-c5cnc(N)nc5)cc4)CCC3)nc2)cs1 [Example 131]"
labelclass = "yes"

[[record]]
molecule = "N#Cc1ccc(NC(=O)C2(c3ccc(-c4cnc(N)nc4)nc3)CCC2)cc1Cl [Example 91]"
labelclass = "yes"

[[record]]
molecule = "Cc1noc(-c2ccc(NC(=O)C3(c4ccc(-c5cnc(N)nc5)cc4)CCC3)nc2)n1 [Example 100]"
labelclass = "yes"

[[record]]
molecule = "Nc1ncc(-c2ccc(C3(C(=O)Nc4ccc(C(=O)O)cn4)CCC3)cc2)cn1 [Example 96]"
labelclass = "no"

[[record]]
molecule = "Cc1nc(-c2ccc(NC(=O)C(C)(C)c3ccc(-c4cnc(N)nc4)cc3)nc2)cs1 [Example 235]"
labelclass = "yes"

[[record]]
molecule = "COC(=O)c1cc(NC(=O)C2(c3ccc(-c4cnc(N)nc4)cc3)CCC2)ccc1O [Example 97]"
labelclass = "yes"

[[record]]
molecule = "Nc1ncc(-c2ccc(C3(C(=O)Nc4ccc5ncsc5c4)CCC3)cc2)cn1 [Example 204]"
labelclass = "yes"

[[record]]
molecule = "Nc1ncc(-c2ccc(C3(C(=O)Nc4nc(-c5ccccc5)ns4)CCC3)cc2)cn1 [Example 242]"
labelclass = "yes"

[[record]]
molecule = "CN1CCc2nc(NC(=O)C3(c4ccc(-c5cnc(N)nc5)cc4)CCC3)sc2C1 [Example 234]"
labelclass = "no"

[[record]]
molecule = "Cn1c(=O)c2cc(NC(=O)C3(c4ccc(-c5cnc(N)nc5)cc4)CCOCC3)cnc2n(C)c1=O [Example 69]"
labelclass = "no"

[[record]]
molecule = "CCOC(=O)c1ccc(NC(=O)C2(c3ccc(-c4cnc(N)nc4)cc3)CCC2)nc1 [Example 237]"
labelclass = "yes"

[[record]]
molecule = "COc1cncc(-c2ccc(NC(=O)C3(c4ccc(-c5cnc(N)c(CO)c5)cc4)CCOCC3)nc2)c1 [Example 171]"
labelclass = "yes"

[[record]]
molecule = "Nc1ncc(-c2ccc(C3(C(=O)Nc4nc(-c5cccnc5)cs4)CCC3)cc2)cn1 [Example 253]"
labelclass = "yes"

[[record]]
molecule = "CC(C)C(C)(C(=O)Nc1cccnc1)c1ccc(-c2cnc(N)nc2)cc1 (stereo not drawn) [Example 184]"
labelclass = "no"

[[record]]
molecule = "COc1cc(NC(=O)C2(c3ccc(-c4cnc5[nH]ccc5c4)cc3)CCC2)ccn1 [Example 190]"
labelclass = "yes"

[[record]]
molecule = "Nc1ncc(-c2ccc(C3(C(=O)Nc4ccc(C(=O)O)cn4)CCOCC3)cc2)cn1 [Example 157]"
labelclass = "no"

[[record]]
molecule = "Nc1ncc(-c2ccc(C3(C(=O)Nc4nccs4)CCC3)cc2)cn1 [Example 200]"
labelclass = "no"

[[record]]
molecule = "Cc1nc(-c2ccc(NC(=O)C3(c4ccc(-c5cnc(N)nc5)cc4)CCOCC3)cc2)cs1 [Example 121]"
labelclass = "no"

[[record]]
molecule = "COc1cncc(-c2ccc(C(C)(C(=O)Nc3cccc(-c4csc(C)n4)c3)C(C)C)cc2)c1 (stereo not drawn) [Example 113]"
labelclass = "no"

[[record]]
molecule = "Nc1ncc(-c2ccc(C3(C(=O)Nc4ccc(Oc5ccccc5)cn4)CCC3)cc2)cn1 [Example 194]"
labelclass = "no"

[[record]]
molecule = "Cc1ccc2nc(NC(=O)C3(c4ccc(-c5cnc(N)nc5)cc4)CCOCC3)sc2c1 [Example 8]"
labelclass = "no"

[[record]]
molecule = "Nc1ncc(-c2ccc(C3(C(=O)Nc4ccc(-n5ccnc5)cc4)CCOCC3)cc2)cn1 [Example 154]"
labelclass = "no"

[[record]]
molecule = "Cc1cccc(-c2cnc(NC(=O)C3(c4ccc(-c5cnc(N)nc5)cc4)CCOCC3)nc2)c1 [Example 156]"
labelclass = "no"

